- measurement target: Hex A (Homo sapiens, UniProt P06865+P07686)
- Sequence (P06865 89-529): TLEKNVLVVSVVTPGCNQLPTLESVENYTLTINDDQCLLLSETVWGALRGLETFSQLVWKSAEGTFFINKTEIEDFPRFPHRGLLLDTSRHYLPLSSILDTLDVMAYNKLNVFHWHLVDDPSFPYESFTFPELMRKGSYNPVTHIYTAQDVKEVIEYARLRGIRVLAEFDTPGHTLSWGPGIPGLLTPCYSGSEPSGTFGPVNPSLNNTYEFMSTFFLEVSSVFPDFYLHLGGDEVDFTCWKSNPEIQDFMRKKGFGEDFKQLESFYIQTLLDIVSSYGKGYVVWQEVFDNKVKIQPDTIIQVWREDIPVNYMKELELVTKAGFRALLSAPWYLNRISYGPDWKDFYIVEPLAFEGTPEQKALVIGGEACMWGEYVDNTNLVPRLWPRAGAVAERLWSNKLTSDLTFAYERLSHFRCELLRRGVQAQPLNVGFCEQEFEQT
- Sequence (P07686 122-311 limits assumed): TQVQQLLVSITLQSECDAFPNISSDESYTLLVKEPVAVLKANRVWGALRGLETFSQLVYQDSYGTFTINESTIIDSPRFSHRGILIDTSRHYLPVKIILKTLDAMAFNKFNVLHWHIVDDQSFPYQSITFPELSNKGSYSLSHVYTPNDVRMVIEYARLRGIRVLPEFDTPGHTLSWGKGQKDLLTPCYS
- Sequence (P07686 315-556 limits assumed): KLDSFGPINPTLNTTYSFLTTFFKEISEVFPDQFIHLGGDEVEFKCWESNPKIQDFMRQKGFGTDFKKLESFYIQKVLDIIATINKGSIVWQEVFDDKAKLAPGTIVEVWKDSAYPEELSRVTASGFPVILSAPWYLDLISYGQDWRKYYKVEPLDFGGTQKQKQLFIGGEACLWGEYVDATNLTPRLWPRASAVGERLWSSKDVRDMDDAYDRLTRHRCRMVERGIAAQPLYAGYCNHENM
- protocol details: Hex A inhibition (IC50 from dose response curves of Hex A residual activity)
- experimental setup: read-out: IC50 (μM ± Err); Hex A inhibition, values determined in Example 3; pH not given
value kind: IC50

>  <compound>
CCc1nc(N)nc(N)c1-c1ccccc1

>  <value kind>
IC50

>  <value observed>
32 µM

$$$$
>  <compound>
CCc1nc(N)nc(N)c1-c1ccc(C(F)(F)F)cc1

>  <value kind>
IC50

>  <value observed>
15 µM

$$$$
>  <compound>
CCc1nc(N)nc(N)c1-c1cc(C)cc(C)c1 [ksh3-19e]

>  <value kind>
IC50

>  <value observed>
47 µM

$$$$
>  <compound>
CCc1nc(N)nc(N)c1-c1cccc(C)c1 [ksh3-19d]

>  <value kind>
IC50

>  <value observed>
34 µM

$$$$

Provide one value: measured IC50 of `CCCc1nc(N)nc(N)c1-c1ccc(Cl)cc1`
18 µM

====

- measurement target: HexB (Homo sapiens)
- protocol details: HexB inhibition (purified isozyme)
- Type: biochemical
- experimental setup: pH 7, read-out: IC50 HexB pH 7
value kind: IC50 (µM)
Give bare numbers, in µM.

Supply reported IC50 belonging to this compound: `CCc1nc(N)nc(N)c1-c1ccccc1`
15

====

- measurement target: purified recombinant human DHFR (Homo sapiens)
- Sequence (P00374 whole entry): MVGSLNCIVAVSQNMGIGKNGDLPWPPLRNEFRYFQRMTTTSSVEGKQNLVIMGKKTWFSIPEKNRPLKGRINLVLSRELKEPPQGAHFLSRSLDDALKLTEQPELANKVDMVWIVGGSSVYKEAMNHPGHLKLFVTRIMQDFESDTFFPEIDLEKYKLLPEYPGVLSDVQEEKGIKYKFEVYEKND
- protocol details: DHFR inhibition
- experimental setup: FIG. 13B
value kind: pIC50
Numbers only, as −log10 of the molar value.

Return value of pIC50 for input CCc1nc(N)nc(N)c1-c1ccccc1 [ksh3-10] , no commentary.
6.70

====

- measurement target: Hex A (Homo sapiens, UniProt P06865+P07686)
- protocol details: Hex A inhibition (IC50 from dose response curves of Hex A residual activity)
- experimental setup: IC50 (μM ± Err), Hex A inhibition, values determined in Example 3; pH not given
Please assign false (0) whenever IC50 is at or above 30 µM, and true (1) whenever it is below.

>  <entry smiles>
CCc1nc(N)nc(N)c1-c1ccc(F)cc1

>  <measurement target>
Hex A (Homo sapiens, UniProt P06865+P07686)

>  <assigned class>
false (0)

$$$$
>  <entry smiles>
CCCc1nc(N)nc(N)c1-c1ccc(C(F)(F)F)cc1

>  <measurement target>
Hex A (Homo sapiens, UniProt P06865+P07686)

>  <assigned class>
true (1)

$$$$
>  <entry smiles>
CCc1nc(N)nc(N)c1-c1cccs1

>  <measurement target>
Hex A (Homo sapiens, UniProt P06865+P07686)

>  <assigned class>
false (0)

$$$$

In plain terms, does `CCc1nc(N)nc(N)c1-c1ccsc1` come in under 30 µM for IC50?
false (0)

Consider the compound `CCCc1nc(N)nc(N)c1-c1ccc(OC)cc1` . Is its IC50 strictly less than 30 µM?
true (1)

Does this compound meet the criterion IC50 < 30 µM? `CCc1nc(N)nc(N)c1-c1ccc(C(F)(F)F)cc1`
true (1)

====

- measurement target: mutant Hex A (Homo sapiens, UniProt P06865+P07686)
- experimental setup: Hex A rescue, determined from graphs of FIGS. 5-7
Consider the following compounds; for each one, report its EC50.
Numbers only, in µM.

>  <compound>
CCCc1nc(N)nc(N)c1-c1cccc(C)c1 [ksh3.33d]

>  <value observed>
14.8

$$$$
>  <compound>
CCc1nc(N)nc(N)c1-c1ccsc1 [zjm7-69]

>  <value observed>
10

$$$$
>  <compound>
CCCc1nc(N)nc(N)c1-c1ccc(OC)cc1 [zjm1-139]

>  <value observed>
14.2

$$$$
>  <compound>
CCc1nc(N)nc(N)c1-c1cccs1 [zjm7-67]

>  <value observed>
6.46

$$$$

I have 2 compounds here; please give me EC50 for each one.
1. CCc1nc(N)nc(N)c1-c1ccccc1 [ksh3-10]
2. CCc1nc(N)nc(N)c1-c1ccccc1C [ksh3-19c]

38.4
4.95

====

- measurement target: Hex A (Homo sapiens, UniProt P06865+P07686)
- protocol details: Hex A inhibition (IC50 from dose response curves of Hex A residual activity)
- experimental setup: IC50 (μM ± Err), in brackets, brackets: IC50 extrapolated from an incomplete dose response curve
# note: boundary value 2000 µM maps to Not satisfied; IC50 below it maps to Satisfied

>  <molecule>
CCCCc1nc(N)nc(N)c1-c1ccc(Cl)cc1 [zjm1-91]

>  <measurement target>
Hex A (Homo sapiens, UniProt P06865+P07686)

>  <assigned class>
Satisfied

$$$$
>  <molecule>
Cc1ccc(-c2c(C)nc(N)nc2N)cc1 [ksh3-14c]

>  <measurement target>
Hex A (Homo sapiens, UniProt P06865+P07686)

>  <assigned class>
Not satisfied

$$$$
>  <molecule>
Cc1cccc(-c2c(C)nc(N)nc2N)c1 [ksh3-14d]

>  <measurement target>
Hex A (Homo sapiens, UniProt P06865+P07686)

>  <assigned class>
Not satisfied

$$$$
>  <molecule>
Cc1ccc(-c2c(C)nc(N)nc2N)cc1 [ksh3-14b]

>  <measurement target>
Hex A (Homo sapiens, UniProt P06865+P07686)

>  <assigned class>
Satisfied

$$$$
>  <molecule>
Cc1nc(N)nc(N)c1-c1ccc(F)cc1 [ksh3-14a]

>  <measurement target>
Hex A (Homo sapiens, UniProt P06865+P07686)

>  <assigned class>
Satisfied

$$$$

Consider the additional molecule presented here.
Given the entry CCc1ncncc1-c1ccc(C(F)(F)F)cc1 [vsa4] , would its reported IC50 be below 2000 µM?
Not satisfied

====

- measurement target: HexB (Homo sapiens, UniProt P07686)
- protocol details: HexB inhibition (purified isozyme)
- Format: biochemical
- experimental setup: pH 4.5, 1.6 mM substrate, read-out: IC50 HexB pH 4.5
value kind: IC50 (µM)
One number for each entry, in µM.

Give a short answer stating reported IC50 for CCc1nc(N)nc(N)c1-c1ccccc1 [ksh3-10] .
38

====

- measurement target: Hex A (Homo sapiens, UniProt P06865+P07686)
- protocol details: Hex A inhibition (IC50 from dose response curves of Hex A residual activity)
- experimental setup: IC50 (μM ± Err), Hex A inhibition, values determined in Example 3; pH not given
value kind: log10 IC50 (log10 of the value in µM)
# log10 transformed; quantity=IC50; unit=µM

Would you please look over these solved cases?
>  <compound>
Cc1nc(N)nc(N)c1-c1ccc(Cl)cc1 [jts22]

>  <value kind>
log10 IC50

>  <value observed>
2.75

$$$$
>  <compound>
CCc1nc(N)nc(N)c1-c1ccc(C)cc1 [ksh3-19b]

>  <value kind>
log10 IC50

>  <value observed>
1.86

$$$$
>  <compound>
NCc1nc(N)nc(N)c1-c1ccc(Cl)cc1 [zjm7-27]

>  <value kind>
log10 IC50

>  <value observed>
2.25

$$$$

Dear colleague, could you please provide log10 IC50 for the compounds listed below?
1. CCCCc1nc(N)nc(N)c1-c1ccc(C(F)(F)F)cc1 [zjm1-115]
2. CCCc1nc(N)nc(N)c1-c1ccccc1 [ksh3-29]

1: 2.15; 2: 1.57

====

Record form. Attribute: IC50. Fill in for each entry.
- measurement target: Hex A (Homo sapiens, UniProt P06865+P07686)
- protocol details: Hex A inhibition (IC50 from dose response curves of Hex A residual activity);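 further: remaining Hex A enzyme activity recorded across rising inhibitor doses, with dose response curves run at pH 6.5 and again at pH 4.5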
- experimental setup: without error; pH not stated
Please answer using a numeric value trailed by its unit.

Recorded IC50, per entry:
>  <molecule>
CCCc1nc(N)nc(N)c1-c1ccc(Cl)cc1 [zjm1-135]

>  <IC50>
17.9 µM

$$$$
>  <molecule>
CCc1nc(N)nc(N)c1-c1cc(C)cc(C)c1 [ksh3-19e]

>  <IC50>
47.4 µM

$$$$

State IC50 (Hex A (Homo sapiens, UniProt P06865+P07686)) of CCc1nc(N)nc(N)c1-c1ccccc1 [ksh3-10] .
32 µM

====

Field: Range of Increase. Provide a value for each of the compounds that follow.
- measurement target: mutant Hex A (Homo sapiens, UniProt P06865+P07686)
- Type: cell-based
- experimental setup: range of increase in Hex A activity

Examples with their reported Range of Increase follow.
>  <compound>
CCc1nc(N)nc(N)c1-c1ccccc1

>  <value observed>
4

$$$$
>  <compound>
CCCc1nc(N)nc(N)c1-c1cccc(C)c1 [ksh3.33d]

>  <value observed>
3

$$$$
>  <compound>
CCc1nc(N)nc(N)c1-c1ccc(C(F)(F)F)cc1 [jts16]

>  <value observed>
4

$$$$
>  <compound>
CCCc1nc(N)nc(N)c1-c1ccc(F)cc1 [ksh3-33a]

>  <value observed>
4

$$$$
>  <compound>
CCc1nc(N)nc(N)c1-c1ccsc1

>  <value observed>
4

$$$$

Required: Range of Increase, one value per compound below.
1. CCc1nc(N)nc(N)c1-c1ccccc1C [ksh3-19c]
2. CCCc1nc(N)nc(N)c1-c1cc(C)cc(C)c1 [ksh3.33e]
3. CCc1nc(N)nc(N)c1-c1ccc(F)cc1

[4, 1, 4]

For the compound CCc1nc(N)nc(N)c1-c1cc(C)cc(C)c1 [ksh3-19e] , give its reported Range of Increase.
3
